System: Rice Sheath Blight Disease (sheath and culm blight of rice)
measurement_notes: Spawn growth rate on agar plates (Embodiment 9)
Assay type: cell-based, Rhizoctonia solani
condition_details: 48 h, testing concentration of 100 μg/g; Table 6; read-out: Sheath and culm blight of rice Average inhibition rate (%)
Reported inhibition of growth at 100 µg/g by item:
attribute_measured: inhibition of growth at 100 µg/g

> print(dat)
                                   compound  value
1  Cc1ncc(Cn2nnc(COc3ccc(Cl)cc3C)c2I)c(N)n1    98%
2  Cc1ncc(Cn2nnc(COc3ccc([N+](=O)[O-])cc3)c2I)c(N)n1    97%
3  CC1COC(Cn2cncn2)(c2ccc(Oc3ccc(Cl)cc3)cc2Cl)O1 (stereo not shown) [Difenoconazole, reference compound]   100%
4     Cc1ncc(Cn2nnc(COc3ccccc3Cl)c2I)c(N)n1    99%
5  Cc1ncc(Cn2nnc(COc3ccc(C#N)cc3)c2I)c(N)n1    97%
6       Cc1ncc(Cn2nnc(COc3ccccc3)c2I)c(N)n1    96%
7  Cc1ncc(Cn2nnc(COc3ccc(F)cc3Cl)c2I)c(N)n1    94%
